Kindly state pKi for each of the entries shown.
Target desc: sigma-2 binding site (Cavia porcellus, UniProt H0V073)
Construct: Guinea pig whole membrane preparations (P2 microsomal fraction); from tissue; host or cells: guinea pig membranes (P2 microsomal fraction), as described by Weber et al; brain inferred from the sister test b489
Sequence (H0V073 1-176): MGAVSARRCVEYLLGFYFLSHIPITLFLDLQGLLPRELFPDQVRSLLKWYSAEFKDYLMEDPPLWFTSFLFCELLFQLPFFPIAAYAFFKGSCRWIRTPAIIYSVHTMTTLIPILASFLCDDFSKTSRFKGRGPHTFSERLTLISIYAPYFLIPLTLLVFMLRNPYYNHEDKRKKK
Assay procedure: biochemical
Parameters: species or system guinea pig
Cond: Table 10; read-out: SIGMA-2 KI vs. 3H-DTG + PENTAZOCINE MEAN
For clarity, pKi is expressed as the negative log10 of concentration in mol/L.

Note to self: pKi recorded for CCCC(N)Cc1ccccc1 (racemic) [Compound 34, (±) 1-Phenyl-2-aminopentane] was 4.99

Note to self: pKi recorded for `CN1CCN(CC/C=C/c2ccccc2)CC1` was 5.59

Note to self: pKi recorded for `c1ccc(CCCCCNCCCc2ccccc2)cc1` was 8.01

Note to self: pKi recorded for `CCCN1CCN(c2ccccc2)CC1` was 6.27

Note to self: pKi recorded for `C[C@H](Cc1ccccc1)NCCCc1ccc2ccccc2c1` was 6.59

Note to self: pKi recorded for CC(Cc1ccccc1)NCCCCc1ccccc1 (racemic) was 7.27

Note to self: pKi recorded for CC(Cc1ccc2ccccc2c1)NCCCc1ccccc1 (racemic) [Compound 17] was 6.65

Note to self: pKi recorded for `CN1CCN(CC/C=C\c2ccccc2)CC1` was 5.88

Note to self: pKi recorded for CC(Cc1cccc(C(F)(F)F)c1)NCCCc1ccccc1 (racemic) was 7.68

Note to self: pKi recorded for `CCCN(C)CCCCCc1ccccc1` was 7.39

Note to self: pKi recorded for `O=C1c2ccccc2C(=O)N1CCCCN1CCN(c2ccccc2)CC1` was 7.69

Note to self: pKi recorded for NCCCCCC1CCCCC1.O=C(O)C(=O)O [Compound 126, 5-Cyclohexylpentylamine Hydrogen Oxalate] was 5.59

Note to self: pKi recorded for CCOc1ccc(CC(C)NCCCc2ccccc2)cc1 (racemic) was 7.47

Note to self: pKi recorded for `CN(C)CCCCCC1CCCCC1` was 6.71
